Origin of values: PubChem BioAssay (NCI)

Test system: KM12 colon
Test: NCI-60 one-dose screen, 48 h
Conditions: 10 µM unless noted
About 83,000 compounds went through this panel and 20% of them were active in at least one assay; those are over-represented in the sample as a whole. Calls of active or inactive are those of the source. Rule for the calls: active = growth percent below 10; inactive = the rest.
Choose one outcome from this list and give only that: 1.0 (active), 0.0 (inactive)

Prompt: Dear all, I need the recorded test outcome for "CCCCCCCCCc1ccc(OC(C)=O)cc1" , thank you.
Response: 0.0

Prompt: Which outcome was entered for the compound "Cc1c(-c2ccc(C3CCCCC3)cc2)nc2ccc(F)cc2c1C(=O)O" in this test?
Response: 0.0

Prompt: Test call, this compound: "O=C(CCl)Nc1ccccc1SCc1cc(Cl)cc2c1OCOC2"
Response: 0.0

Prompt: What did the test return for "O=C(c1ccc(Cl)cc1)N1CCCCC1" ?
Response: 0.0

Prompt: For this compound, state the assay outcome: "Nc1cc2c(cc1Cl)C(=O)c1ccccc1C2=O"
Response: 0.0

Prompt: Fill in: this test's call for "O=C(NC1CCCCC1)c1ccc(Cl)cc1" is ___
Response: 0.0

Prompt: Entry "Cc1ccc(C)c(CN(C)C)c1O" : call = ?
Response: 0.0

Prompt: Record lookup: outcome of this test for Nc1ccn(C2CC(N)C(CO)O2)c(=O)n1 (stereo not drawn) ?
Response: 0.0

Prompt: # lookup: test call for "Oc1ccc2ccccc2c1CN1CCOCC1"
Response: 0.0

Prompt: Per the assay record, what outcome was assigned to "CC(C)(N)CO[C@H]1C[C@H]2CC[C@@]1(C)C2(C)C" ?
Response: 0.0

Prompt: Could you please tell me the result logged for "N#Cc1ccc(OC(=O)Nc2cc(Cl)cc(Cl)c2)cc1" in this assay?
Response: 1.0

Prompt: Please share the test call associated with "COc1cc(C(=O)O)c(O)c(C(C)(C)C)c1" .
Response: 0.0

Prompt: Test call, this compound: C=C1CC2(OC1=O)C(=O)N(C)c1ccc(I)cc12 (stereo not drawn)
Response: 1.0
